Reference source for all entries: patent US20250313625A1

% competition values for the binders below.
# tested.on: T1, hFc tagged human LAG3 ECD recombinant protein (human, UniProt P18627 23-450)
# T1 construct: range 23-450; also called biotin labelled hFc tagged human LAG3 ECD; not shown: human IgG Fc tag
# T1 sequence (looked up): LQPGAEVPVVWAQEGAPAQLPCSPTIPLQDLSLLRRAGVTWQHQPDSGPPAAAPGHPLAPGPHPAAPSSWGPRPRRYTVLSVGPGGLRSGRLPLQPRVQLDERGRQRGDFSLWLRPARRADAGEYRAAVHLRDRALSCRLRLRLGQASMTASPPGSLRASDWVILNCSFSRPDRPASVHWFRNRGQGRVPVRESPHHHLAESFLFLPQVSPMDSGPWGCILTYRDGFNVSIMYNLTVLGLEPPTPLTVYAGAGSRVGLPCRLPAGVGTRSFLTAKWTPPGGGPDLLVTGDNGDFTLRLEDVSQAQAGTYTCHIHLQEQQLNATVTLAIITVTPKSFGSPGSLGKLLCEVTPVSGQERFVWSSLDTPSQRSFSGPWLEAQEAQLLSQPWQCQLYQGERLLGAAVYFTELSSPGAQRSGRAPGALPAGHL
# assay.details: competitive ELISA: excess competitor, biotin hFc-LAG3 ECD, coated BMS-986016
Please respond with the number in % and leave the unit unwritten.

{"binder": "Antibody 029 (antibody, V domains shown, mouse hybridoma antibody) VH: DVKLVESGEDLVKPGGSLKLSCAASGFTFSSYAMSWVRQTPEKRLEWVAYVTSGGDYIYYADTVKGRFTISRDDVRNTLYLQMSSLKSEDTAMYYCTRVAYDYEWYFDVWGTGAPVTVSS VL: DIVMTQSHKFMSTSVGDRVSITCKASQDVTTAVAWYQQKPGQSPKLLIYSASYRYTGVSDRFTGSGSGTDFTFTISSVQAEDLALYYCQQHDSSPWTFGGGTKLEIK", "unit.string": "%", "% competition": 20.3}

Please look up its % competition: Antibody 033 (antibody, V domains shown, mouse hybridoma antibody) VH: EVQLQQSGAELVRPGASVKLSCTASDFNIKDDYIHWVKQRPEQGLEWIGWIDLENGDTEYASKFQGKATITADTSSNTAYLQLSSLTSEDTAVYYCTTKGSHWGQGTLVTVSA VL: DVVMTQIPLSLPVSLGDQASISCRSSQSLVYSNGNTYLNWYLQKPGQSPKLLIHKVSNRFSGVPDRFSGSGSGTDFTLKISRVEAEDLGVYFCSQSTHVPYTFGGGTKLEIR 92.5

And then Antibody 024 (antibody, V domains shown, mouse hybridoma antibody) VH: EVQLQQSGPELVKPGASVKISCKASGYTFTDYYMNWVKQSHGKRLEWIGDIDPNNGGTSYNQKFKGKATLTVDKSSSSAYMDLRSLTSEDSAVYYCARAGSYYYGSSYVEYFDVWGTGTTVTVSS VL: DIQMTQSPASLSASVGETVTITCRASGNIHNYLAWYQQKQGASPQLLVYNAKTLADGVPSRFSGSGSGTEFSLKINSLQPEDFGNYYCQHFWNTPYTFGGGTKLEIK , what is it? 73

And then Antibody 015 (antibody, V domains shown, mouse hybridoma antibody) VH: EVQLQQSGPVLVKPGASVKLSCKASGFTFTDYYMNWVKLSHGKSLEWIGVINPFNGDTAYKQKFKGKATLTVDKSSSTAYMELNSLTSEDSAVYYCARDDGYYLYYFDSWGQGTTLTVSS VL: DIQMTQSPSSLSASLGERVSLTCRASQDIGSRLNWLQQEPDGTIKRLIYATSSLDSGVPKRFSGSRSGSDYSLTISSLDSEDFVVYYCLQYASSPPTFGAGTKLELK , what is it? 10
